Biological target: T1, orthogonal hCD122 receptor (hoRb), hCD122 with H133D and Y134F (human, UniProt P14784 27-550); further: reference of the scale not given here
T1 sequence: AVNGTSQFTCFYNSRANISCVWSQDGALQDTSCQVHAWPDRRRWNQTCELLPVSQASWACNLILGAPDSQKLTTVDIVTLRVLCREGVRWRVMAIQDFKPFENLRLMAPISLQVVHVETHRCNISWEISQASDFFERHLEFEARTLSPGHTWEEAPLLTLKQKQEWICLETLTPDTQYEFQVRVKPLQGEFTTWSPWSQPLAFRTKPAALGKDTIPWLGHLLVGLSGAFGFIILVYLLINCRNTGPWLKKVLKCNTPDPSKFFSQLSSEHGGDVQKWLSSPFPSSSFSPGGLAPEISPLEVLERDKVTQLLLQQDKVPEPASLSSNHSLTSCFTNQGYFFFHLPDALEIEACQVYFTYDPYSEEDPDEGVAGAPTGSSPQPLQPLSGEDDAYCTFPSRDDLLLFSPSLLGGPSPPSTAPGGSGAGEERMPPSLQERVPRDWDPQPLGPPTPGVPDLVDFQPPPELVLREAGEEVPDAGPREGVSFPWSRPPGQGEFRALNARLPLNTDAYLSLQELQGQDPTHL
Test: cell-based or functional assay
property_label: Relative Proliferation Fold Change NKL 1:10 (fold)

H55Y, SQVLKA (ligand) APTSSSTKKTQLQLSQLLVLLKAILNGINNYKNPKLTRMLTFKFYMPKKATELKYLQCLEEELKPLEEVLNLAQSKNFHLRPRDLISNINVIVLELKGSETTFMCEYADETATIVEFLNRWITFCQSIISTLT = 2.34

A. TQVLKA (ligand) APTSSSTKKTQLQLTQLLVLLKAILNGINNYKNPKLTRMLTFKFYMPKKATELKHLQCLEEELKPLEEVLNLAQSKNFHLRPRDLISNINVIVLELKGSETTFMCEYADETATIVEFLNRWITFCQSIISTLT
B. L18G, SQVLKA (ligand) APTSSSTKKTQLQLSQLGVLLKAILNGINNYKNPKLTRMLTFKFYMPKKATELKHLQCLEEELKPLEEVLNLAQSKNFHLRPRDLISNINVIVLELKGSETTFMCEYADETATIVEFLNRWITFCQSIISTLT
C. V91R, SQVLKA (ligand) APTSSSTKKTQLQLSQLLVLLKAILNGINNYKNPKLTRMLTFKFYMPKKATELKHLQCLEEELKPLEEVLNLAQSKNFHLRPRDLISNINRIVLELKGSETTFMCEYADETATIVEFLNRWITFCQSIISTLT
INPUT: Could you please sort these 3 entries by Relative Proliferation Fold Change NKL 1:10 from high to low? List the labels, following the order given in the request.
OUTPUT: A, B, C
